Test system: HTT mRNA
EXPERIMENT: RT-qPCR splicing assay, HTT canonical junction (CJ) and alternative junction (AJ) mRNA
Assay type: cell-based, human
CONDITION DETAILS: Homo sapiens; Table 5 panel; canonical junction qPCR; compound concentration having 50% response in CJ decrease; read-out: HTT IC50 (decrease in CJ mRNA levels)
OUTCOME MEASURE: IC50

Field: example entries. Status: answers known.
MOLECULE	IC50
Cc1cn2nc(-c3cc(F)c4c(=O)n(C5CCNCC5)cnc4c3)cc2c(C)n1	< 100 nM
O=C1c2ccc(-c3cn[nH]c3)cc2CCN1C1CCNCC1	> 10000 nM
Cc1cn2cc(-c3cc(F)c4c(=O)n([C@H]5CC[C@H](N(C)C)CC5)ccc4c3)cc(F)c2n1	< 100 nM

Documented IC50 of `COc1cc(-c2cc(F)c3c(=O)n(C4CCNCC4)cnc3c2)cnn1` : > 10000 nM

Documented IC50 of `Cn1ccc2nn(-c3ccc4c(=O)n(C5CCNCC5)ccc4c3)cc2c1=O` : > 10000 nM

Documented IC50 of `CN1CCC(Nc2ccc3c(=O)n(-c4ccc5cn(C)nc5c4)cnc3c2)CC1` : > 10000 nM

Documented IC50 of `Cc1cn2nc(-c3cc(Cl)c4c(=O)n(C5CCNCC5)ccc4c3)cc(C)c2n1` : < 100 nM

Documented IC50 of `CC(=O)Nc1cc(-c2cc(C)c3nc(C)cn3n2)cc2ccn([C@@H]3CCNC3)c(=O)c12` : > 10000 nM

Documented IC50 of Cc1cn2nc(-c3ccc4c(c3)CCN(C3CCNC(C)C3)C4=O)cc(C)c2n1 (centres unmarked) : 1000 to 10000 nM

Documented IC50 of Cc1cn2cc(-c3ccc4c(=O)n([C@@H]5CCCNC5)ccc4c3)cc(F)c2n1 (single isomer, unassigned) : 1000 to 10000 nM

Documented IC50 of `Cc1cn2nc(-c3ccc4c(c3F)CCN(C3CCNCC3)C4=O)cc(C)c2n1` : 1000 to 10000 nM

Documented IC50 of `Cc1cn2nc(-c3ccc4c(=O)n([C@H]5CCNC6(CC6)C5)ccc4c3)cc(C)c2n1` : < 100 nM

Documented IC50 of `Cc1cn2nc(-c3cc(F)c4c(=O)n(C5CCN(C)CC5)ccc4c3)cc(C)c2n1` : < 100 nM

Documented IC50 of Cc1cc(-c2ccc3c(=O)n(C4CCNC5(COC5)C4)cnc3c2)cc2cn(C)nc12 (centres unmarked) : 1000 to 10000 nM

Documented IC50 of `Cc1cn2cc(-c3nc4ccc(N5CCN(C)CC5)cc4c(=O)[nH]3)cc(F)c2n1` : 1000 to 10000 nM

Documented IC50 of Cc1cn2cc(-c3cc(O)c4c(=O)n(C5CCNC5)ccc4c3)cc(C#N)c2n1 (centres unmarked) : > 10000 nM

Documented IC50 of `Cc1cn2cc(-c3cc(F)c4c(=O)n(N5CCNCC5)cnc4c3)cc(F)c2n1` : 100 to 1000 nM

// provenance: patent US20250332173A1
